Measurement record for Aurora kinase A (Homo sapiens, UniProt O14965); quantity recorded: IC50.
OUTCOME_MEASURE: IC50

>>> measured_value("COc1cc2c(-c3cnc(-c4ccc[nH]4)o3)c[nH]c2cc1Br")
"22 µM"
>>> measured_value("COc1cc(Br)cc2[nH]c(I)c(-c3cnc(-c4ccc[nH]4)o3)c12")
"> 10 µM"
>>> measured_value("COc1cc(Br)cc2[nH]cc(-c3oc(-c4ccc[nH]4)nc3I)c12")
"> 10 µM"
>>> measured_value("COc1cc(Br)cc2[nH]cc(-c3cnc(-c4cc(Br)c[nH]4)o3)c12")
"> 10 µM"
